Reference for the values: ChEMBL document CHEMBL3988442

Reported Percent Effect by item:
Test system: Mycobacterium tuberculosis
ASSAY PROCEDURE: Cornell M. t heat shock assay; also: in the data most compounds retested in dose-response had high values
Assay type: functional, organism-based
Parameters: dose or concentration left out as unconfirmed
The campaign covered roughly 69,000 compounds. About 950 (1.4%) showed an effect of 50% or more. For the sample, strong results were picked, then their nearest neighbours and some compounds at random.
OUTCOME MEASURE: Percent Effect (%)

In [3]: df
Out[3]:
                                    molecule  numeric_value
 0  Clc1ccc2cccnc2c1CN1CCCCC1Cn1cncn1 (centres undefined)          36.55
 1   Cc1cnn(CCNCc2csc(-c3ccc4c(c3)OCO4)n2)c1          93.68
 2  Cc1cnn(CCNCc2csc(-c3ccc(C(N)=O)cc3)n2)c1         -3.906
 3  Cn1ncc2c(NCCC34CCCN3CCC4)nc(C3CCCC3)nc21          90.62
 4  O=C(CN1CCCC(Cn2cncn2)C1)Nc1cccnc1 (centres undefined)          9.071
 5  Cc1ccc(N2CC[C@@H]3[C@@H]2CCN3Cc2ccsc2)nn1.O=C(O)C(F)(F)F.O=C(O)C(F)(F)F         -10.53
 6     Cc1oc(-c2ccc(Cl)cc2)nc1C(=O)NC1=NCCS1          105.8
 7        CN(C)C(=O)c1nc2c(s1)CCCN2Cc1ccccc1          1.043
 8             CNCCCNc1nc(C2CCCC2)nc2c1cnn2C         -14.72
 9  Cc1c(Cl)c(CN2CCCC2Cn2cncn2)nc2ccccc12 (centres undefined)          54.06
10  CCc1cnc(N2CCC3(CC(=O)N(Cc4csc(C)n4)C3)C2)nc1.O=C(O)C(F)(F)F (centres undefined)          1.546
11       Cn1ncc2c(NCCn3cccc3)nc(C3CCCC3)nc21         -24.81
12  COc1c(CNCc2ccc(C(=O)N3CCCC3)cc2)c(C)nn1C.Cl         -14.26
13      CCc1c(C)sc(NC(=O)CN2CCOCC2)c1C(=O)OC          24.22
14  Cc1cccc(CN2C(=O)C[C@H]3[C@@H]2CCN3Cc2ccco2)n1.O=C(O)C(F)(F)F.O=C(O)C(F)(F)F         -4.137
15   CCN(C(=O)c1nc2c(s1)CCCN2Cc1ccccc1)C(C)C          52.41
16  O=C(O)C(=O)O.c1cc(CN2CCC(c3ccc4c(c3)OCO4)CC2)ccn1         -9.586
17  Cc1nc2ccccc2nc1CN1CCCC1Cn1cncn1 (centres undefined)          3.442
18  O=C(CN1CCCCC1Cn1cncn1)Nc1ccncc1 (centres undefined)         -9.468
19    c1cnn(CCNCc2csc(-c3ccc4c(c3)OCO4)n2)c1          65.17
20  C[C@@H]1CN(C(=O)c2ccc[nH]2)C[C@]12CCN(CCN1CCCC1)C2=O.O=C(O)C(F)(F)F          22.28
21  Cc1cc(C)n(CC2CCCN2C(=O)c2nccc3ccccc23)n1 (centres undefined)          3.715
22                   COc1ccccc1OCCNCCn1cccn1         -4.408
23  CC1(C)CC(N(Cc2cccnc2)Cc2cccc(F)c2)CC(C)(C)N1.O=C(O)CC(O)(CC(=O)O)C(=O)O         -20.05
24  O=C(O)C(F)(F)F.O=C(c1ncccn1)N1CCC2(CC1)COC(COc1ccccn1)C2 (centres undefined)          -42.8
25           c1cnn(CCNCCCOc2ccc3c(c2)OCO3)c1         0.6427
26  CCn1ccc(-c2cc(NCCCOc3cccc(C)c3)nc(C)n2)n1          104.2
27  CC(Cn1cccn1)NCc1csc(-c2ccc3c(c2)OCO3)n1 (centres undefined)          35.45
28  COc1cc(C)cc(C(C(=O)O)N(C)Cc2ccon2)c1OC (centres undefined)          14.77
29  CNCC(=O)N1CCCC(c2nccnc2Oc2cccc(F)c2)C1.Cl (centres undefined)         -3.012
30  CCn1ccc(-c2cc(C(=O)O)n3nc(C)c(Cl)c3n2)n1          6.637
31  Cn1cc(CN2Cc3c(cnn3C)C(COCC3CC3)C2)cn1.O=C(O)C(F)(F)F.O=C(O)C(F)(F)F (centres undefined)         -38.19
32        Cc1oc(-c2ccccc2)nc1CC(=O)NC1=NCCS1          20.62
33  CN1CCN(CC2CN(CC3CC3)Cc3nccn3C2)CC1.O=C(O)C(F)(F)F.O=C(O)C(F)(F)F.O=C(O)C(F)(F)F (centres undefined)         -11.65
34  CN(C)C(c1ccccn1)[C@H]1CC[C@H](CNC(=O)CC2CCCC2)CC1 (some centres undefined)         -9.462
35  Clc1ccc2cccnc2c1CN1CCCC(Cn2cncn2)C1 (centres undefined)          18.36
36  COc1cc(F)ccc1C(C(=O)O)N(C)Cc1ccon1 (centres undefined)          98.53
37      CC(C)NC(=O)c1cc2c(s1)CCN2C(=O)CN(C)C         -7.193
38   CCn1ccc(-c2cc(NCCCOc3ccccc3C)nc(C)n2)n1          105.6
39  CC(C)N(C)Cc1cc(=O)n2c(n1)CN(S(=O)(=O)C1CC1)CCC2.O=C(O)C(F)(F)F          3.887
40  CCOC(=O)c1c(NC(=O)CN2CCN(C(C)=O)CC2)sc(C)c1C         -7.801
41     Cc1c(C(=O)NC2=NCCS2)cnn1-c1ccc(Br)cc1          23.54
42  CC(C)OCc1ncn2c1CN(Cc1ccc(F)cc1)CCC2.O=C(O)C(F)(F)F          -13.8
43  Cc1cc(C)n(CC2CCCN2C(=O)c2cccnc2N(C)C)n1 (centres undefined)         -10.54
